assay-text: NCI Yeast Anticancer Drug Screen. Data for the mec2-1 strain (AID 157)
experimental-setup: S. cerevisiae mec2-1 strain, at 50.0 µM, active compounds read high
About 79,000 compounds went through this panel and 15% of them were active in at least one assay; those are over-represented in the sample as a whole. Active and inactive are the calls of the source. Rule as the data show it: active = growth inhibition above about 70%; inactive = the rest.
Examples of molecules with documented growth inhibition follow.

INSERT INTO assay_data (molecule, property, recorded_value) VALUES
  ('CC12CCC(OC3OC(CO)C(O)C(O)C3O)C=C1CCC1C2CCC2(C)C(c3ccc(=O)oc3)CCC12 (stereo not given)', 'growth inhibition', '60% (inactive)'),
  ('CCOC(=O)CNCCC1(CC)C(=O)NC(=O)NC1=O', 'growth inhibition', '-8.2% (inactive)');

Input: Name the reported growth inhibition value associated with the molecule COc1ccc(O)c2c(=O)c3c(OC)cc4c(c3oc12)[C@@H]1C=CO[C@@H]1O4
Output: -29.6% (inactive)

Input: Also check CN1CCc2cc3c(cc2[C@H]1[C@@H]1OC(=O)c2c1ccc1c2OCO1)OCO3
Output: -38.5% (inactive)

Input: And the next one, NC1=C(c2nc(-c3cc4ccccc4oc3=O)cs2)C(c2ccco2)c2c(c3ccccc3oc2=O)O1 (stereo not given) ?
Output: -9.9% (inactive)
